target: Factor X, P00742
Sequence (P00742 whole entry, looked up): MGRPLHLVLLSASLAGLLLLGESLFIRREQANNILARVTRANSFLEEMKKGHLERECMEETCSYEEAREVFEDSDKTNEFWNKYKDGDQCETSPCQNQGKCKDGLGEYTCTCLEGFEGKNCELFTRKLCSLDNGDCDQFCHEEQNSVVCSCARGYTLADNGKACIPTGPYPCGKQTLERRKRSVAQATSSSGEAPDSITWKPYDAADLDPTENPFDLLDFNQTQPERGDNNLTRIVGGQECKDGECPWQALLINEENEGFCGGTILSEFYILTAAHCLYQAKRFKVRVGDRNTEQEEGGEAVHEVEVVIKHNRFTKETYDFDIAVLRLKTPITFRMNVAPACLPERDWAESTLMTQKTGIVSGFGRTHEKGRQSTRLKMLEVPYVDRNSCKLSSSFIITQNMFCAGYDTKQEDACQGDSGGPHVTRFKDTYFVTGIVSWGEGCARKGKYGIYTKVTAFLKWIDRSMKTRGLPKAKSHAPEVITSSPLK
PARAMETER MEASURED: KM (µM)
One number for each entry, in µM.

Example proteins with recorded KM:
{"PROTEIN": "FIXa-Y155F/K247N/N249S/R318Y/R338E/E410N (protein) chain 1: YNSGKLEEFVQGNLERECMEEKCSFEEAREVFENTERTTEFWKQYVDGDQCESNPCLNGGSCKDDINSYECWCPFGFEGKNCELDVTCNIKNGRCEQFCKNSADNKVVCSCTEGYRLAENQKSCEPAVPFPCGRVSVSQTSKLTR chain 2: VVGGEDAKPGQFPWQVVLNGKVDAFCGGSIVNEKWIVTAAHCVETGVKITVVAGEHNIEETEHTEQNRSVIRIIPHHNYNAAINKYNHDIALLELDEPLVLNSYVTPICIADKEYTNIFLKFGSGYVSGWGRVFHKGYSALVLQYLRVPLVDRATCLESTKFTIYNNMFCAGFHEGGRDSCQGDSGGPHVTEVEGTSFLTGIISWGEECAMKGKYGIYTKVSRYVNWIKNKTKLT", "READOUT UNIT": "µM", "KM": 0.0153}
{"PROTEIN": "FIXa-D203N/F205T/R318Y (protein) chain 1: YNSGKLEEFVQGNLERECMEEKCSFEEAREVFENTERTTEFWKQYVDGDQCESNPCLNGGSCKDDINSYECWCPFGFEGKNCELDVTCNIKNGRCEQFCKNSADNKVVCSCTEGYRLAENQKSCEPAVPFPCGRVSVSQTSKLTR chain 2: VVGGEDAKPGQFPWQVVLNGKVNATCGGSIVNEKWIVTAAHCVETGVKITVVAGEHNIEETEHTEQKRNVIRIIPHHNYNAAINKYNHDIALLELDEPLVLNSYVTPICIADKEYTNIFLKFGSGYVSGWGRVFHKGYSALVLQYLRVPLVDRATCLRSTKFTIYNNMFCAGFHEGGRDSCQGDSGGPHVTEVEGTSFLTGIISWGEECAMKGKYGIYTKVSRYVNWIKEKTKLT", "READOUT UNIT": "µM", "KM": 0.0475}
{"PROTEIN": "FIXa-K228N/K247N/N249S/R318Y/R338E/T343R/R403E (protein) chain 1: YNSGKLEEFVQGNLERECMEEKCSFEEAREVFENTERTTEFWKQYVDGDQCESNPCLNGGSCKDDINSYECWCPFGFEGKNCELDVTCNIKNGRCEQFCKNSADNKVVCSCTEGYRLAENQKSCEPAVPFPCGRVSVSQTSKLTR chain 2: VVGGEDAKPGQFPWQVVLNGKVDAFCGGSIVNEKWIVTAAHCVETGVNITVVAGEHNIEETEHTEQNRSVIRIIPHHNYNAAINKYNHDIALLELDEPLVLNSYVTPICIADKEYTNIFLKFGSGYVSGWGRVFHKGYSALVLQYLRVPLVDRATCLESTKFRIYNNMFCAGFHEGGRDSCQGDSGGPHVTEVEGTSFLTGIISWGEECAMKGKYGIYTKVSEYVNWIKEKTKLT", "READOUT UNIT": "µM", "KM": 0.0444}
{"PROTEIN": "FIXa-R338E/R403E/E410N (protein) chain 1: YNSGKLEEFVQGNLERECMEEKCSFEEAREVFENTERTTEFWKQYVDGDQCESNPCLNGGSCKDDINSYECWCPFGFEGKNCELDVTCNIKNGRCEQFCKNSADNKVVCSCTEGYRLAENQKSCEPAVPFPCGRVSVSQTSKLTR chain 2: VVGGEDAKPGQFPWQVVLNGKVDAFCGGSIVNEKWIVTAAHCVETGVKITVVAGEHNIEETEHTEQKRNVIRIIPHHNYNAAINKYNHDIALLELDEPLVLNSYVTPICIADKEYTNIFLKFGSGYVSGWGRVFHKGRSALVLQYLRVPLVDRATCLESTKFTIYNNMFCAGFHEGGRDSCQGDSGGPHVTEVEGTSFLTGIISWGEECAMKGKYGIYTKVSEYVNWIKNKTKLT", "READOUT UNIT": "µM", "KM": 0.0455}
{"PROTEIN": "FIXa-Y155F/K247N/N249S/T343R/E410N (protein) chain 1: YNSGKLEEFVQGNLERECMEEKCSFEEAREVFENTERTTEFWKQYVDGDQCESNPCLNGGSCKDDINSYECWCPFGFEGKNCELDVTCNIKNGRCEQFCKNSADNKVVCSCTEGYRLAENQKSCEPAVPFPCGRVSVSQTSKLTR chain 2: VVGGEDAKPGQFPWQVVLNGKVDAFCGGSIVNEKWIVTAAHCVETGVKITVVAGEHNIEETEHTEQNRSVIRIIPHHNYNAAINKYNHDIALLELDEPLVLNSYVTPICIADKEYTNIFLKFGSGYVSGWGRVFHKGRSALVLQYLRVPLVDRATCLRSTKFRIYNNMFCAGFHEGGRDSCQGDSGGPHVTEVEGTSFLTGIISWGEECAMKGKYGIYTKVSRYVNWIKNKTKLT", "READOUT UNIT": "µM", "KM": 0.0344}
{"PROTEIN": "FIXa-D203N/F205T/R318Y/E410N (protein) chain 1: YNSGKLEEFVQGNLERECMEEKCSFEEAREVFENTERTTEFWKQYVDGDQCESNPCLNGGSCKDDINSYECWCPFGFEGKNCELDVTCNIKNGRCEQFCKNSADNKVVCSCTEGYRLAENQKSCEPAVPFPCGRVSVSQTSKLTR chain 2: VVGGEDAKPGQFPWQVVLNGKVNATCGGSIVNEKWIVTAAHCVETGVKITVVAGEHNIEETEHTEQKRNVIRIIPHHNYNAAINKYNHDIALLELDEPLVLNSYVTPICIADKEYTNIFLKFGSGYVSGWGRVFHKGYSALVLQYLRVPLVDRATCLRSTKFTIYNNMFCAGFHEGGRDSCQGDSGGPHVTEVEGTSFLTGIISWGEECAMKGKYGIYTKVSRYVNWIKNKTKLT", "READOUT UNIT": "µM", "KM": 0.0457}

Problem: Which KM reading was recorded for the protein FIXa-D104N/K106S/Y155F/K228N/K247N/N249S (protein) chain 1: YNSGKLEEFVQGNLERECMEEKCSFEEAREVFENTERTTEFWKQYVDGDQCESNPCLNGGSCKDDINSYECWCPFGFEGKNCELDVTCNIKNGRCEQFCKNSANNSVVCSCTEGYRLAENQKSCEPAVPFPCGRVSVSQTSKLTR chain 2: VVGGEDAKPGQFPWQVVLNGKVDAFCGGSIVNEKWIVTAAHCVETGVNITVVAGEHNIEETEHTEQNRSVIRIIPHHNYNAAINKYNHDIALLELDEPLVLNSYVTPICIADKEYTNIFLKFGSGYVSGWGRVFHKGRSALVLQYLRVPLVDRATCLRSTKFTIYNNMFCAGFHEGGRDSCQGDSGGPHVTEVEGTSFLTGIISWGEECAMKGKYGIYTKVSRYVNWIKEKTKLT ?
Solution: 0.0753

Every entry's value here was drawn from patent US20210238260.
